# protocol: in vivo
# test-settings: C57BL/6J, mouse, po
attribute-measured: MTD at 7 day (mg/kg)
Write the number in mg/kg without appending the unit.

The measured MTD at 7 day associated with O=C(OC[C@H]1O[C@H](OC(=O)c2cc(O)c(O)c(OC(=O)c3cc(O)c(O)c(OC(=O)c4cc(O)c(O)c(O)c4)c3)c2)[C@H](OC(=O)c2cc(O)c(O)c(OC(=O)c3cc(O)c(O)c(OC(=O)c4cc(O)c(O)c(O)c4)c3)c2)[C@@H](OC(=O)c2cc(O)c(O)c(OC(=O)c3cc(O)c(O)c(OC(=O)c4cc(O)c(O)c(O)c4)c3)c2)[C@@H]1OC(=O)c1cc(O)c(O)c(OC(=O)c2cc(O)c(O)c(OC(=O)c3cc(O)c(O)c(O)c3)c2)c1)c1cc(O)c(O)c(OC(=O)c2cc(O)c(O)c(OC(=O)c3cc(O)c(O)c(O)c3)c2)c1 reads 4500
